The measured values listed here are drawn from the supplement of paper PMC6555819.

# PBM binding z-score per record follows
System: RARg homodimer (NR concentration 270 nM)
ASSAY_PROCEDURE: PBM binding z-score (relative to random genomic background probes); higher = stronger binding; sequences stand for … in GC…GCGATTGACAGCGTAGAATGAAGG
Just the number, please.

| PRIMARY_SEQUENCE | OBSERVED |
| --- | --- |
| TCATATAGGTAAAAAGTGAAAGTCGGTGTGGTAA | -0.0939 |

For the sequence TCATATACGTAAACAGGTGAAAGTCCGTAAGTTA , what PBM binding z-score is on record?
0.405

Entry under review: ATAAGTAGGTTAGCTGGGGTCATTCAGACTAGGC . Reported PBM binding z-score?
2.94

May I ask what PBM binding z-score has been recorded for TCTATTAGTTGAAGGGTAACCGACGAGTCCGTTT ?
0.398

Look up PBM binding z-score: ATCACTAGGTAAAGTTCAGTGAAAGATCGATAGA
2.39

---

Tested on: PPARg:RXRa DBDmut IVT, anti-RXR (DBD mutation: RXRa K156A/R161A, NR concentration 270 nM, RXRa partner concentration 90 nM)
ASSAY_PROCEDURE: PBM binding z-score (relative to random genomic background probes); higher = stronger binding; sequences stand for … in GC…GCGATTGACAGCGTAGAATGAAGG
# label = criterion met if PBM binding z-score >= 0.8 else criterion not met

Would you please look over these solved cases?
| PRIMARY_SEQUENCE | GROUP_LABEL |
| --- | --- |
| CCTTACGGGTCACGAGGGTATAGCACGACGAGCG | criterion met |
| TCTTGTAGATCAAGCAGGTTAAGTAAGCCTGAGT | criterion met |
| ATCTCTAGGTAAAGATAGCTCAGTGAATGCAAAT | criterion met |
| AGAATGAGGTTATTAAGATGAGGGAATTGCGGTC | criterion met |
| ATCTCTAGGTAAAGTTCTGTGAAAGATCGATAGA | criterion met |
| AGAAGGAGGGCAATGAGTTGATAGCACGGGTGGC | criterion met |
| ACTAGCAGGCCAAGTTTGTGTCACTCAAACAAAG | criterion not met |
| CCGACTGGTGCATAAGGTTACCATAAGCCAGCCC | criterion not met |
| CCTTACGGGTCACTCCAGGTTATTGCATCGGAGT | criterion met |
| CCTAGCAGGCCAGGGTGACTCAAGCATTTCGCTT | criterion not met |

For this sequence, is measured PBM binding z-score 0.8 or higher? TCAGACGGGTGAAGGTAACTCAGGTACGCAGTCG
criterion met

Decide: PBM binding z-score of ATCTCTAGGTAGCCAAGTTCAGTGAATGCCGAAC >= 0.8?
criterion not met

Check the entry TTCCCAAGGTGAGCTGAGGTCGTTGATCCAACTC : does PBM binding z-score equal or exceed 0.8?
criterion not met

PBM binding z-score >= 0.8 for ACTAGCAGGCCATGTTTGGGTCACTCAAACAAAG ?
criterion not met

Does PBM binding z-score meet or surpass 0.8 for TGAATGAGGTTAAGGATCAGGGAACGTGGCGTCG ?
criterion met

// inclusive: PBM binding z-score at least 0.8? input: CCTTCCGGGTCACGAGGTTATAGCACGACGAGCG
criterion met

API: above_or_equal(metric=PBM binding z-score, cutoff=0.8) for item GCCGACAGGTGAAACGCAGGTAACTCAGGGTGGC
criterion not met

API: above_or_equal(metric=PBM binding z-score, cutoff=0.8) for item TGAATGAGGTTACAAGATCAGGGAACGTTGCAAA
criterion met

Say whether ATGTGTAGGTTAAGGGTCATTCAGGTTGGTTCGC shows PBM binding z-score of 0.8 or more.
criterion met

Has CCAGACAGGTGAAAAGTAACTCAGTCTGGTACGC a recorded PBM binding z-score greater than or equal to 0.8?
criterion met

Determine whether measured PBM binding z-score meets or exceeds 0.8 for ATCTCTAGGTAACCAAATTCAGTGAATGCCGAAC
criterion met

Does the reported PBM binding z-score for CGTCCAAGGTCAGCAGTTCAGTGAAAGCGACGTG fall at or above the 0.8 mark?
criterion met

Given TGAAAGAGGTTATAAGATCAGGGAACGTTGCAAA , state whether its PBM binding z-score is at least 0.8.
criterion not met

Does the reported PBM binding z-score for ATCTATAGGTAACCAAGTTCAGTGAATGCCGAAC fall at or above the 0.8 mark?
criterion met

# bool: PBM binding z-score of GCAGACAGCTGAAACGCAGGTAACTCAGGGTGGC >= 0.8
criterion not met

Reported PBM binding z-score at or above 0.8? CCGACTGGGGCAAAGGTTAACATACTCAGTACGA
criterion met
